Reported abundance fitness values are given for each entry in this list.
B1: POU domain, class 3, transcription factor 4, residues 280 to 335; numbered along this chain, P49335 (parent)
chain: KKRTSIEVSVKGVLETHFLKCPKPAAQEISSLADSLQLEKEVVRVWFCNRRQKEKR

- Variants of: B1
- measurement_description: abundance fitness (aPCA) (normalised: wild type 0, dead -1); higher = more abundant; growth selection in yeast, the domain comes from the species named
- experimental_parameters: Homo sapiens
Output: the number by itself.

variant_notation=V10Y observed_result=-0.503
variant_notation=K2M observed_result=-0.201
variant_notation=H17C observed_result=-0.497

--- query ---
For the variant P24W , give its reported abundance fitness.
-0.514
